Cited source for all entries: ChEMBL document CHEMBL1949601

Assay Summary: Fraction unbound in Sprague-Dawley rat plasma at 1 mg/kg, sc
Type: ADME, organism-based
Parameters: dose 1 mg/kg, route subcutaneous
Readout: fraction unbound
Respond using a number only.

QUERY: What value of measured fraction unbound is listed for `CCS(=O)(=O)n1c2c(c3cc(C(=O)N4CCC(C)CC4)ccc31)CN(C1CCOCC1)CC2` ?
RESULT: 0.13

* * *

Here the recorded Papp is given for each entry.
Assay Summary: Apparent permeability across human Caco2 cells
Assay type: ADME, cell-based
Details: Caco-2
Just the number in ×10⁻⁶ cm/s, nothing appended.

Past entries and their recorded results:
[
  {
    "Smiles Representation": "C=CCn1c2c(c3cc(C(=O)N4CCC(C)CC4)ccc31)CN(CC1CC1)CC2",
    "Papp, ×10⁻⁶ cm/s": 3
  },
  {
    "Smiles Representation": "CCOc1ccc(Cc2nc3cc(N(C)S(=O)(=O)c4cccs4)ccc3n2CC2CCCCC2)nc1",
    "Papp, ×10⁻⁶ cm/s": 0.6
  }
]

Now examine the next entry.
QUERY: What value of measured Papp is listed for `CCS(=O)(=O)n1c2c(c3cc(C(=O)N4CCC(C)CC4)ccc31)CN(C1CCOCC1)CC2` ?
RESULT: 13

* * *

Target Under Test: Kappa-type opioid receptor (Homo sapiens, UniProt P41145)
Sequence (P41145 whole entry): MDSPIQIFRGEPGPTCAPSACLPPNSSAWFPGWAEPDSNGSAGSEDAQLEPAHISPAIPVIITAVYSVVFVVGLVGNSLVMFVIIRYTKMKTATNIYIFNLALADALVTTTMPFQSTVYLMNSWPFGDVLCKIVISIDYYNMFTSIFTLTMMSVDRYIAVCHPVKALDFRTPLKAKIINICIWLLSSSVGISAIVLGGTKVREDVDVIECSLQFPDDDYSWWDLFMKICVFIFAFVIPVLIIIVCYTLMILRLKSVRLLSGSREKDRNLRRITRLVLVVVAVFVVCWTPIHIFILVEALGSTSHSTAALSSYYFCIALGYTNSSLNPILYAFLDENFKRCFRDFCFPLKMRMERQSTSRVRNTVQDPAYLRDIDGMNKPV
Readout: IC50

QUERY: Query the reported IC50 for Kappa-type opioid receptor (Homo sapiens, UniProt P41145); item: `CCS(=O)(=O)n1c2c(c3cc(C(=O)N4CCC(C)CC4)ccc31)CN(C1CCOCC1)CC2`
RESULT: > 10 µM

* * *

Assay Summary: Half life in iv dosed Sprague-Dawley rat
Assay type: ADME, organism-based
Details: in vivo
Readout: half-life (min)
Just the number in min, nothing appended.

QUERY: What value of measured half-life is listed for `CCS(=O)(=O)n1c2c(c3cc(C(=O)N4CCC(C)CC4)ccc31)CN(C1CCOCC1)CC2` ?
RESULT: 37.8

* * *

Target Under Test: Cytochrome P450 2D6 (Homo sapiens)
Sequence (P10635 whole entry): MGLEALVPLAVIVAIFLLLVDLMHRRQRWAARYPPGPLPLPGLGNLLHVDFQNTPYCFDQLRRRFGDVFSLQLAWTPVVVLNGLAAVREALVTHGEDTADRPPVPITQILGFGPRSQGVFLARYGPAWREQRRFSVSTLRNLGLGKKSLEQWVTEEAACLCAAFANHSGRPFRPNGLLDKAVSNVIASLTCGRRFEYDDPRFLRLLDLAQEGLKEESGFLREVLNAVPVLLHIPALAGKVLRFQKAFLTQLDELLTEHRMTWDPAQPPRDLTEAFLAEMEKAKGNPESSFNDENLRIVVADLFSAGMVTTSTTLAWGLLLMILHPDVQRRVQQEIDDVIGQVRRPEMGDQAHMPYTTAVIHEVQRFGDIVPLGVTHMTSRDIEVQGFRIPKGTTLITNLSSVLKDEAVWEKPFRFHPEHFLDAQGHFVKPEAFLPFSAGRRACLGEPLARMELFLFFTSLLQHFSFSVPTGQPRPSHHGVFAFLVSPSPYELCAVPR
Readout: IC50

QUERY: What value of measured IC50 is listed for `CCS(=O)(=O)n1c2c(c3cc(C(=O)N4CCC(C)CC4)ccc31)CN(C1CCOCC1)CC2` ?
RESULT: > 20 µM

* * *

Target Under Test: MAO-A (Homo sapiens, UniProt P21397)
Sequence (P21397 whole entry): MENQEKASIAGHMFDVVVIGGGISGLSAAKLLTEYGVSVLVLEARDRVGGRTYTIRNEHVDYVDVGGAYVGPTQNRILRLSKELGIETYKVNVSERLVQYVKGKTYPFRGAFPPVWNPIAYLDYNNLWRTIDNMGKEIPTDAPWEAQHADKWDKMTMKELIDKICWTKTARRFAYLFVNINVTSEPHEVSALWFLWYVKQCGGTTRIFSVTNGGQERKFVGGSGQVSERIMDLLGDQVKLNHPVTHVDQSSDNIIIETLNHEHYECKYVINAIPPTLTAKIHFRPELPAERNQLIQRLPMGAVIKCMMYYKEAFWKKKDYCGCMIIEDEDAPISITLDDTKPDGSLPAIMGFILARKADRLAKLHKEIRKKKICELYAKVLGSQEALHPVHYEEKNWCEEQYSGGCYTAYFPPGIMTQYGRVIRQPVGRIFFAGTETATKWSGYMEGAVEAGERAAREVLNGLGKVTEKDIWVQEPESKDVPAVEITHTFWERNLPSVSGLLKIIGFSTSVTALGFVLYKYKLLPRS
Assay Summary: Activity at human MAO-A receptor at 10 uM
Details: read-out: Activity
Readout: activity at 10 µM

QUERY: What value of measured activity at 10 µM is listed for `CCS(=O)(=O)n1c2c(c3cc(C(=O)N4CCC(C)CC4)ccc31)CN(C1CCOCC1)CC2` ?
RESULT: < 50%

* * *

Assay Summary: Ratio of drug uptake in brain to plasma of Sprague-Dawley rat at 1 mg/kg, sc
Assay type: ADME, organism-based
Design: dose 1 mg/kg, route subcutaneous
Details: read-out: BPR
Readout: Kp
Respond using a number only.

[
  {
    "Compound": "CCOc1ccc(Cc2nc3cc(N(C)S(=O)(=O)c4cccs4)ccc3n2CC2CCCCC2)nc1",
    "Readout": "Kp",
    "Val": 0.07
  },
  {
    "Compound": "C=CCn1c2c(c3cc(C(=O)N4CCC(C)CC4)ccc31)CN(CC1CC1)CC2",
    "Readout": "Kp",
    "Val": 0.74
  },
  {
    "Compound": "CCCCCCC(C)(C)c1cc(O)c2c(c1)OC(C)(C)[C@@H]1CC=C(C(=O)O)C[C@@H]21 [LENABASUM]",
    "Readout": "Kp",
    "Val": 0.3
  },
  {
    "Compound": "CCS(=O)(=O)n1c2c(c3cc(C(=O)N4CCC(C)CC4)ccc31)CN(C1CCOCC1)CC2",
    "Readout": "Kp",
    "Val": 0.07
  },
  {
    "Compound": "CCCCCOc1ccc(C(=O)c2cccc3ccccc23)c2ccccc12",
    "Readout": "Kp",
    "Val": 0.04
  }
]

Now examine the next entry.
QUERY: What value of measured Kp is listed for CCCCCc1cc(O)c2c(c1)OC(C)(C)[C@@H]1CCC(C)=C[C@@H]21 [DRONABINOL] ?
RESULT: 1

* * *

Here the recorded microsomal CLint is given for each entry.
Assay Summary: Metabolic stability in rat liver microsomes
Type: ADME, Microsome
Details: read-out: Stability

Past entries and their recorded results:
[
  {
    "Smiles Representation": "CCS(=O)(=O)n1c2c(c3cc(C(=O)N4CCC(C)CC4)ccc31)CN(C1CCOCC1)CC2",
    "Val": "202 µL/min/mg"
  },
  {
    "Smiles Representation": "CCOc1ccc(Cc2nc3cc(N(C)S(=O)(=O)c4cccs4)ccc3n2CC2CCCCC2)nc1",
    "Val": "> 300 µL/min/mg"
  }
]

Now examine the next entry.
QUERY: What value of measured microsomal CLint is listed for `C=CCn1c2c(c3cc(C(=O)N4CCC(C)CC4)ccc31)CN(CC1CC1)CC2` ?
RESULT: > 300 µL/min/mg

* * *

Ki tested on UniProt:P21554: recorded values
Sequence (P21554 whole entry): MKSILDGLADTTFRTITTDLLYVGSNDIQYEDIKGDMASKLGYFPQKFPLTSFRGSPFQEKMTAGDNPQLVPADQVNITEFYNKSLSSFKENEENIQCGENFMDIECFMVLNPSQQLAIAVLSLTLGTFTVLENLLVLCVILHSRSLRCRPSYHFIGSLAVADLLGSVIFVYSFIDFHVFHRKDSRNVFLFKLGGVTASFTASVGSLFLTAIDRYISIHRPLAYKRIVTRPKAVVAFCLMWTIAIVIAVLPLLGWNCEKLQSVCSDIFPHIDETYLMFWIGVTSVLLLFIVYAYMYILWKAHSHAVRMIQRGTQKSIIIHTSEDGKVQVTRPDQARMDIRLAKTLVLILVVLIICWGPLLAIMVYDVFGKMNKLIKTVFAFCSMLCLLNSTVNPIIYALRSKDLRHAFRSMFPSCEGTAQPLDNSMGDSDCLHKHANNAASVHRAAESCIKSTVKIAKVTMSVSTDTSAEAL
Entry format: amount then unit.

Past entries and their recorded results:
[
  {
    "Compound": "CCn1c2c(c3cc(C(=O)N4CCC(C)CC4)ccc31)CN(C1CCCC1)CC2",
    "Target Under Test": "UniProt:P21554",
    "Ki": "34 nM"
  },
  {
    "Compound": "CCCn1c2c(c3cc(C(=O)N4CCC(C)CC4)ccc31)CN(C1CCCC1)CC2",
    "Target Under Test": "UniProt:P21554",
    "Ki": "15 nM"
  },
  {
    "Compound": "CCS(=O)(=O)n1c2c(c3cc(C(=O)N4CCC(C)CC4)ccc31)CN(C1CCOCC1)CC2",
    "Target Under Test": "UniProt:P21554",
    "Ki": "120 nM"
  }
]

QUERY: What value of measured Ki is listed for `CCCC(=O)n1c2c(c3cc(C(=O)N4CCC(C)CC4)ccc31)CN(C1CCOCC1)CC2` ?
RESULT: 102 nM

QUERY: Follow-up item: `CC1CCN(C(=O)c2ccc3c(c2)c2c(n3S(C)(=O)=O)CCN(C3CCCC3)C2)CC1`
RESULT: 36 nM

QUERY: Follow-up item: `CC1CCN(C(=O)c2ccc3c(c2)c2c(n3S(=O)(=O)n3ccnc3)CCN(C3CCOCC3)C2)CC1`
RESULT: 592 nM

* * *

Target Under Test: Cannabinoid receptor 1 (Rattus norvegicus, UniProt P20272)
Sequence (P20272 whole entry): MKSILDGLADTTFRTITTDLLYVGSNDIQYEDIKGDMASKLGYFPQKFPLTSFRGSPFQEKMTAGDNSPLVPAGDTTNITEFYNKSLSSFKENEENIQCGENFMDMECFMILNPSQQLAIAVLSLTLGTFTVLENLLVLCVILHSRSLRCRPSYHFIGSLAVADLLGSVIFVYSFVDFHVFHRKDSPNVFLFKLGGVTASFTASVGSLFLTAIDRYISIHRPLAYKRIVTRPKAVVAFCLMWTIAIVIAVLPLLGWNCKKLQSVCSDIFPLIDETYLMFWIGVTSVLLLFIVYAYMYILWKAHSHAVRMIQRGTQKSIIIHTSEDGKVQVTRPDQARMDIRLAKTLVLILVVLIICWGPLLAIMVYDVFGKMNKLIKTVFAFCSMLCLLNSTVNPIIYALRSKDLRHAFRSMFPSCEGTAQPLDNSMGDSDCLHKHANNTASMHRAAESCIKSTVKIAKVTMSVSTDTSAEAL
Assay Summary: Agonist activity at CB1 receptor in rat brain tissue
Here the recorded EC50 is given for each entry.
Just the number in nM, nothing appended.

[
  {
    "Smiles Representation": "CCS(=O)(=O)n1c2c(c3cc(C(=O)N4CCC(C)CC4)ccc31)CN(C1CCOCC1)CC2",
    "Readout": "EC50",
    "Units Text": "nM",
    "Val": 85
  }
]

Now examine the next entry.
QUERY: Query the reported EC50 for Cannabinoid receptor 1 (Rattus norvegicus, UniProt P20272); item: `C=CCn1c2c(c3cc(C(=O)N4CCC(C)CC4)ccc31)CN(CC1CC1)CC2`
RESULT: 1440

* * *

Tested on: Brain
Assay Summary: Drug uptake in brain of Sprague-Dawley rat at 0.35 to 1.4 mg/kg, sc
Format: ADME, organism-based
Design: dose 0.35-1.4 mg/kg, route subcutaneous
Details: in vivo, read-out: Drug uptake
Readout: concentration
Entry format: amount then unit.

QUERY: What value of measured concentration is listed for `CCS(=O)(=O)n1c2c(c3cc(C(=O)N4CCC(C)CC4)ccc31)CN(C1CCOCC1)CC2` ?
RESULT: 10 nM

* * *

IC50 tested on Voltage-gated inwardly rectifying potassium channel KCNH2 (Homo sapiens): recorded values
Sequence (Q12809 whole entry): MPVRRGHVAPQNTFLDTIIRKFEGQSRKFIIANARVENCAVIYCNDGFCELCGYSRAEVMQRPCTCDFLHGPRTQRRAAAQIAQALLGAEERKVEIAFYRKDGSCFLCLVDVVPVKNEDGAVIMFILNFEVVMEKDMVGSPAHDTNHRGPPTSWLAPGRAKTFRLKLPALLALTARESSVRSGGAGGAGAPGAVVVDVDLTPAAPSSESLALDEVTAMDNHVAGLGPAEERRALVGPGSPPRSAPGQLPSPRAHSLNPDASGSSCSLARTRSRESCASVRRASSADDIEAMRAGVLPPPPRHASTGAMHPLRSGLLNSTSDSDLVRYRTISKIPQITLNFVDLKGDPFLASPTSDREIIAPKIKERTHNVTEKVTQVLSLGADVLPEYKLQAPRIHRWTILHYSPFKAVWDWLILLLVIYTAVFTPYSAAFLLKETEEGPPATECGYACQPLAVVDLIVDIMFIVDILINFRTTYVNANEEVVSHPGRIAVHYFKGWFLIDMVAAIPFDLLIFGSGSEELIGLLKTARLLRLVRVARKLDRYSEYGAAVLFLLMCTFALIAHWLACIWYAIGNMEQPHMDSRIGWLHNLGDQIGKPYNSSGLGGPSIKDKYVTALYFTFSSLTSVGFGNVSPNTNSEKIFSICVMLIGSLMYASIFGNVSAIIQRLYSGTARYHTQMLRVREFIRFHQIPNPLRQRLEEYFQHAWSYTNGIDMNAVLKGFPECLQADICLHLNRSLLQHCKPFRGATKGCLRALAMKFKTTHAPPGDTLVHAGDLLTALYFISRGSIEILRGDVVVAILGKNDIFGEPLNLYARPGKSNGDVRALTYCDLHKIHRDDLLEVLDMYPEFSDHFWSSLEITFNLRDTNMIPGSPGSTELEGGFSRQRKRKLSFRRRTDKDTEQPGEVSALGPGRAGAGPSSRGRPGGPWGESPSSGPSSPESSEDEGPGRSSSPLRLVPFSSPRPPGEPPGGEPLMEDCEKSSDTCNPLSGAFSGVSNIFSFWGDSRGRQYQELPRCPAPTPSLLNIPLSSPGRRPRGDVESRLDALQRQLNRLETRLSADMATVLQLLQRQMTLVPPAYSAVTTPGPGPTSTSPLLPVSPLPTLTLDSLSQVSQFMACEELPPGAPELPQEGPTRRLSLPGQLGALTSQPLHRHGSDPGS
Just the number in µM, nothing appended.

[
  {
    "Compound": "CCCS(=O)(=O)n1c2c(c3cc(C(=O)N4CCC(C)CC4)ccc31)CN(C1CCOCC1)CC2",
    "Readout": "IC50",
    "Val": 2
  },
  {
    "Compound": "CCS(=O)(=O)n1c2c(c3cc(C(=O)N4CCC(C)CC4)ccc31)CN(C1CCOC1)CC2 (centres undefined)",
    "Readout": "IC50",
    "Val": 25
  }
]

QUERY: Query the reported IC50 for Voltage-gated inwardly rectifying potassium channel KCNH2 (Homo sapiens); item: `Cn1c2c(c3cc(C(=O)N4CCCCC4)ccc31)CN(C1CCOCC1)CC2`
RESULT: 18

QUERY: Follow-up item: `CC1CCN(C(=O)c2ccc3c(c2)c2c(n3C)CCN(C3CCOCC3)C2)CC1`
RESULT: 2.6

* * *

Here the recorded microsomal CLint is given for each entry.
Assay Summary: Metabolic stability in human liver microsomes
Assay type: ADME, Microsome
Details: read-out: Stability

Past entries and their recorded results:
[
  {
    "Smiles Representation": "C=CCn1c2c(c3cc(C(=O)N4CCC(C)CC4)ccc31)CN(C1CCOCC1)CC2",
    "microsomal CLint": "42 µL/min/mg"
  },
  {
    "Smiles Representation": "C=CCn1c2c(c3cc(C(=O)N4CCC(C)CC4)ccc31)CN(C1CCCC1)CC2",
    "microsomal CLint": "93 µL/min/mg"
  },
  {
    "Smiles Representation": "C=CCn1c2c(c3cc(C(=O)N4CCC(C)CC4)ccc31)CN(Cc1ccncc1)CC2",
    "microsomal CLint": "> 300 µL/min/mg"
  },
  {
    "Smiles Representation": "C=CCn1c2c(c3cc(C(=O)N4CCC(C)CC4)ccc31)CN(Cc1cccnc1)CC2",
    "microsomal CLint": "> 300 µL/min/mg"
  },
  {
    "Smiles Representation": "C=CCn1c2c(c3cc(C(=O)N4CCC(C)CC4)ccc31)CN(CC1CC1)CC2",
    "microsomal CLint": "66 µL/min/mg"
  }
]

QUERY: What value of measured microsomal CLint is listed for `C=CCn1c2c(c3cc(C(=O)N4CCC(C)CC4)ccc31)CN(C1CCCCC1)CC2` ?
RESULT: 135 µL/min/mg
